- SYSTEM NAME: T1, human PDGFRb.hFc (human)
- T1 construct: Soluble dimeric construct with human Fc; also called hPDGFRb.hFc
- ASSAY PROCEDURE: SPR, mAb captured, 37 C
pKd: −log10 of the molar value.
# pKd >= 9 gives true, anything below gives false

BINDER	ANSWER LABEL
H4H3098S (antibody, human IgG4, V domains shown, human IgG4 Fc (H4H prefix)) VH: EVQLVESGGGVVQPGRSLRLSCAASGFTFSNYGMHWVRQAPGKGLEWVTVIWYDGSYKYYADSVKGRFTISRDNSKNRLYLQMNSLRAEDTAVYYCARGELGDAFDIWGQGTMVTVSS VL: DIQMTQSPSTLSASVGDRLTITCRASQSISTWLAWYQQKPGKAPTLLIYKASSLESGVPSRFSGSGSGTDFTLTISSLQPDDFATYYCQQYKTSWTFGQGTKLEIKR	true
H4H3374N (antibody, human IgG4, V domains shown, human IgG4 Fc (H4H prefix)) VH: QLQLQESGPGLVKPSETLSLTCTVSGGSITSSSYYWGWIRQPPGKGLEWIGSIYYRGSTNYNPSLKSRVTISVDSSKNQFYLKVSSVTAVDTAVYYCARQNGAARPSWFDPWGQGTLVTVSS VL: EIVLTQSPDTISLSPGERATLSCRASQSISSIYLAWYQQKPGQAPRLLIYGASSRVTGIPDRFSVSGSGTDFTLTISRLEPEDFAVYYCQHYGISPFTFGPGTKVDIR	true
H4H3106S (antibody, human IgG4, V domains shown, human IgG4 Fc (H4H prefix)) VH: QVQLVESGGGLVQPGGSLRLSCAASGFTFSSYWMSWVRQVPGKGLEWVANMNQDGTEKYYVDSVKGRLTISRENVKNSLYLQMNGLRAEDTAVYYCARDLVPPRQGDYYYYFGMDVWGHGTMVTVSS VL: AIQMTQSPSTLSASVGDIVTITCRASQSISDWLAWYQQKPGKAPKLLIFKASSLESGVPSRFSGSGSGTDFTLTISSLQPDDFATYYCQQYNSYSRTFGQGTKVDIK	false
H4H3096S (antibody, human IgG4, V domains shown, human IgG4 Fc (H4H prefix)) VH: EVQLVQSGGSLVQPGGSLRLSCTASGFTFSSYWMSWVRQAPGKGLEWVANIQQDESEKYYVDSVKGRFSISRDNAKKSLYLQMNSLRAEDTAVYFCARDLVPPRQGDYYHYFGMDVWGQGTLVTVSS VL: AIRMTQSPSTLSASVGDRVTITCRASQSISDWLAWYQQKPGKAPNLLIYKASSLESGVPSRFSGSGSGTEFTLTISGLQPDDFATYYCQQYNSYSRTFGQGTKLEIKR	false

Data provenance: patent US20170210813A1
